- ASSAY REMARKS: First-in-human clinical study: plasma and whole blood PK of INX-315 (oral QD, ASD tablet)
- Format: in vivo
- CONDITION CONTEXT: human, plasma, po, 100 mg, plasma, 100 mg QD cohort, Day 15, median; read-out: Tmax, Median
MEASUREMENT LABEL: Tmax
Field note: include the unit after the figure.

Task: Check the records and state Tmax for NS(=O)(=O)c1ccc(Nc2ncc3cc4n(c3n2)C2(CCCCC2)C(=O)NN4)cc1 [INX-315]
Output: 6 h

---

- ASSAY REMARKS: First-in-human clinical study: plasma and whole blood PK of INX-315 (oral QD, ASD tablet)
- Type: in vivo
- CONDITION CONTEXT: human, plasma, oral, 100 mg, plasma, 100 mg QD, Day 15, individual patients; read-out: t1/2 (converted)
MEASUREMENT LABEL: half-life

Task: Hello, please tell me recorded half-life for this one: `NS(=O)(=O)c1ccc(Nc2ncc3cc4n(c3n2)C2(CCCCC2)C(=O)NN4)cc1`
Output: 17 h

---

- ASSAY REMARKS: First-in-human clinical study: plasma and whole blood PK of INX-315 (oral QD, ASD tablet)
- Format: in vivo
- CONDITION CONTEXT: human, plasma, oral, 100 mg, plasma, 100 mg QD, Day 1, Cohort 1 (Table 27); read-out: Tmax, median
- Method: All INX-315 tablets were taken at approximately the same time(s) each day. Samples will also be collected pre-dose on Cycle 1 Days 2, 8, 16, and Day 22, and pre-dose on Day 1 of each subsequent cycle. Standard non-compartmental PK parameters were estimated. […] PK parameters will be summarized descriptively by dosing cohort. […] Dose proportionality will be assessed for AUC and Cmax using a power model. […] Patients were upgraded to the 200 mg QD dose level and PK/PD plasma parameters were measured (FIG. 18A). […]
MEASUREMENT LABEL: Tmax
Answer with the value and then the unit.

Task: Answer with the recorded Tmax for the compound listed here: NS(=O)(=O)c1ccc(Nc2ncc3cc4n(c3n2)C2(CCCCC2)C(=O)NN4)cc1 [INX-315]
Output: 2 h

---

- ASSAY REMARKS: First-in-human clinical study: plasma and whole blood PK of INX-315 (oral QD, ASD tablet)
- Type: in vivo
- CONDITION CONTEXT: human, plasma, oral, 200 mg, 200 mg QD (n = 2), 8.0 hr
- Experimental: All INX-315 tablets were taken at approximately the same time(s) each day. Samples will also be collected pre-dose on Cycle 1 Days 2, 8, 16, and Day 22, and pre-dose on Day 1 of each subsequent cycle. Standard non-compartmental PK parameters were estimated. […] PK parameters will be summarized descriptively by dosing cohort. […] Dose proportionality will be assessed for AUC and Cmax using a power model. […] Patients were upgraded to the 200 mg QD dose level and PK/PD plasma parameters were measured (FIG. 18A). […]
MEASUREMENT LABEL: concentration at 8 h (ng/mL)
Numbers only, in ng/mL.

Task: Specify concentration at 8 h for NS(=O)(=O)c1ccc(Nc2ncc3cc4n(c3n2)C2(CCCCC2)C(=O)NN4)cc1 [INX-315] and stop.
Output: 374

---

- ASSAY REMARKS: Plasma protein binding, mouse
- Type: in vitro ADME
MEASUREMENT LABEL: fraction unbound
Numbers only.

Task: Give recorded fraction unbound. `NS(=O)(=O)c1ccc(Nc2ncc3cc4n(c3n2)C2(CCCCC2)C(=O)NN4)cc1`
Output: 0.023

---

- ASSAY REMARKS: First-in-human clinical study: plasma and whole blood PK of INX-315 (oral QD, ASD tablet)
- Assay type: in vivo
- CONDITION CONTEXT: human, whole blood, oral, 200 mg, Cohort 2 (200 mg QD), Day 1, individual subjects; read-out: AUC Whole Blood
- Experimental: All INX-315 tablets were taken at approximately the same time(s) each day. Samples will also be collected pre-dose on Cycle 1 Days 2, 8, 16, and Day 22, and pre-dose on Day 1 of each subsequent cycle. Standard non-compartmental PK parameters were estimated. […] PK parameters will be summarized descriptively by dosing cohort. […] Dose proportionality will be assessed for AUC and Cmax using a power model. […] Patients were upgraded to the 200 mg QD dose level and PK/PD plasma parameters were measured (FIG. 18A). […]
MEASUREMENT LABEL: AUC (ng·h/mL)
Numbers only, in ng·h/mL.

Task: Dear colleague, please send me the reported AUC for NS(=O)(=O)c1ccc(Nc2ncc3cc4n(c3n2)C2(CCCCC2)C(=O)NN4)cc1 [INX-315] when you can.
Output: 96600

---

- ASSAY REMARKS: First-in-human clinical study: plasma and whole blood PK of INX-315 (oral QD, ASD tablet)
- Type: in vivo
- CONDITION CONTEXT: human, plasma, po, 100 mg, plasma, 100 mg QD cohort, Day 1, median; read-out: Cmax, Median
- Protocol: All INX-315 tablets were taken at approximately the same time(s) each day. Samples will also be collected pre-dose on Cycle 1 Days 2, 8, 16, and Day 22, and pre-dose on Day 1 of each subsequent cycle. Standard non-compartmental PK parameters were estimated. […] PK parameters will be summarized descriptively by dosing cohort. […] Dose proportionality will be assessed for AUC and Cmax using a power model. […] Patients were upgraded to the 200 mg QD dose level and PK/PD plasma parameters were measured (FIG. 18A). […]
MEASUREMENT LABEL: Cmax (ng/mL)
Answers are plain numbers, in ng/mL.

Task: State, in one line, measured Cmax of `NS(=O)(=O)c1ccc(Nc2ncc3cc4n(c3n2)C2(CCCCC2)C(=O)NN4)cc1`
Output: 187

---

- ASSAY REMARKS: First-in-human clinical study: plasma and whole blood PK of INX-315 (oral QD, ASD tablet)
- Type: in vivo
- CONDITION CONTEXT: human, plasma, oral, 200 mg, plasma, 200 mg QD, Day 15, Cohort 2; read-out: Tmax, median
MEASUREMENT LABEL: Tmax (h)
Numbers only, in h.

Task: Tell us which Tmax value is on record for `NS(=O)(=O)c1ccc(Nc2ncc3cc4n(c3n2)C2(CCCCC2)C(=O)NN4)cc1`
Output: 6

---

- ASSAY REMARKS: First-in-human clinical study: plasma and whole blood PK of INX-315 (oral QD, ASD tablet)
- Format: in vivo
- CONDITION CONTEXT: human, plasma, oral, 100 mg, 100 mg QD (n = 6), 2.0 hr
MEASUREMENT LABEL: concentration at 2 h (ng/mL)
Give bare numbers, in ng/mL.

Task: Report measured concentration at 2 h; entry is `NS(=O)(=O)c1ccc(Nc2ncc3cc4n(c3n2)C2(CCCCC2)C(=O)NN4)cc1`
Output: 158

---

- ASSAY REMARKS: First-in-human clinical study: plasma and whole blood PK of INX-315 (oral QD, ASD tablet)
- Type: in vivo
- CONDITION CONTEXT: human, plasma, oral, 100 mg, plasma, 100 mg QD (n = 6); read-out: Total Area (AUC)
MEASUREMENT LABEL: AUC

Task: Supply recorded AUC for NS(=O)(=O)c1ccc(Nc2ncc3cc4n(c3n2)C2(CCCCC2)C(=O)NN4)cc1 [INX-315] here.
Output: 2400 ng·h/mL

---

- ASSAY REMARKS: Plasma protein binding, human
- Format: in vitro ADME
MEASUREMENT LABEL: fraction unbound

Task: For the compound `NS(=O)(=O)c1ccc(Nc2ncc3cc4n(c3n2)C2(CCCCC2)C(=O)NN4)cc1` , report fraction unbound.
Output: 0.056

---

- ASSAY REMARKS: First-in-human clinical study: plasma and whole blood PK of INX-315 (oral QD, ASD tablet)
- Type: in vivo
- CONDITION CONTEXT: human, plasma, oral, 100 mg, plasma, 100 mg QD, Day 15 observed, mean of first two patients; read-out: AUC
MEASUREMENT LABEL: AUC
Please don't drop the unit; write it after the number.

Task: Recall and state the measured AUC for `NS(=O)(=O)c1ccc(Nc2ncc3cc4n(c3n2)C2(CCCCC2)C(=O)NN4)cc1` .
Output: 6.58 µg·h/mL

---

- ASSAY REMARKS: Aqueous solubility of INX-315
- Assay type: physicochemical
- CONDITION CONTEXT: 0.5% Tween-80 in PBS, aqueous with cosolvent or surfactant or cyclodextrin, 0.5% Tween-80 in PBS; read-out: Total Drug Solubility
MEASUREMENT LABEL: solubility

Task: Using the record for `NS(=O)(=O)c1ccc(Nc2ncc3cc4n(c3n2)C2(CCCCC2)C(=O)NN4)cc1` , state its measured solubility.
Output: 55 µg/mL

---

- ASSAY REMARKS: First-in-human clinical study: plasma and whole blood PK of INX-315 (oral QD, ASD tablet)
- Type: in vivo
- CONDITION CONTEXT: human, plasma, oral, 100 mg, 100 mg QD (n = 6), 0.5 hr
MEASUREMENT LABEL: concentration at 0.5 h (ng/mL)
Give bare numbers, in ng/mL.

Task: Identify the reported concentration at 0.5 h for the following entry. NS(=O)(=O)c1ccc(Nc2ncc3cc4n(c3n2)C2(CCCCC2)C(=O)NN4)cc1 [INX-315]
Output: 18.9
